Test system: Escherichia coli TOP10
Assay: shrunken log2 fold change of peptide-encoding DNA abundance (4.5 h post-induction vs induction); higher = less antimicrobial activity (less host growth inhibition)
Details: time post-induction: 4.5 h; library: site-saturation at positions 5, 18, 19, 20
Property: shrunken log2 fold change

>>> df
          polymer_sequence  measured
0  RRIRRRPPRLPRPRPRPDLAPRP     0.197
1  RRIRIRPPRLPRPRPRPVKPPRP    0.0254
2  RRIRHRPPRLPRPRPRPGHLPRP   -0.0129
3  RRIRDRPPRLPRPRPRPSMCPRP     0.123

---

Test system: Escherichia coli TOP10
Assay: shrunken log2 fold change of peptide-encoding DNA abundance (4.5 h post-induction vs induction); higher = less antimicrobial activity (less host growth inhibition)
Conditions: time post-induction: 4.5 h; library: site-saturation at positions 5, 18, 19, 20
Property: shrunken log2 fold change

In [3]: df
Out[3]:
          polymer_sequence  measured
0  RRIRSRPPRLPRPRPRPIMHPRP    -0.455
1  RRIRARPPRLPRPRPRPTNYPRP    -0.137
2  RRIRRRPPRLPRPRPRPFNDPRP    0.0417
3  RRIRQRPPRLPRPRPRPSQWPRP     -0.02
4  RRIRDRPPRLPRPRPRPLEAPRP     0.679
5  RRIRRRPPRLPRPRPRPQNLPRP    -0.276
6  RRIRLRPPRLPRPRPRPGWTPRP     0.208

---

Test system: Escherichia coli TOP10
Test: shrunken log2 fold change of peptide-encoding DNA abundance (4.5 h post-induction vs induction); higher = less antimicrobial activity (less host growth inhibition)
Conditions: time post-induction: 4.5 h; library: site-saturation at positions 5, 18, 19, 20
Property: shrunken log2 fold change

>>> print(df.to_string())
          polymer_sequence         subject_of_test  measured
0  RRIRFRPPRLPRPRPRPKDDPRP  Escherichia coli TOP10    -0.052
1  RRIRPRPPRLPRPRPRPSALPRP  Escherichia coli TOP10  -0.00612
2  RRIRFRPPRLPRPRPRPRTGPRP  Escherichia coli TOP10    0.0905
3  RRIRGRPPRLPRPRPRPNDDPRP  Escherichia coli TOP10     0.349
4  RRIRPRPPRLPRPRPRPLWMPRP  Escherichia coli TOP10    0.0937
5  RRIRMRPPRLPRPRPRPPCLPRP  Escherichia coli TOP10    -0.157
6  RRIRVRPPRLPRPRPRPDDHPRP  Escherichia coli TOP10    -0.106
7  RRIRKRPPRLPRPRPRPKGWPRP  Escherichia coli TOP10      0.61
8  RRIRCRPPRLPRPRPRPERYPRP  Escherichia coli TOP10    -0.153

---

Test system: Escherichia coli TOP10
Assay: shrunken log2 fold change of peptide-encoding DNA abundance (4.5 h post-induction vs induction); higher = less antimicrobial activity (less host growth inhibition)
Settings: time post-induction: 4.5 h; library: site-saturation at positions 5, 18, 19, 20
Tag: rule met if measured shrunken log2 fold change is not below -0.2, rule not met if it is.

>>> print(df.to_string())
           polymer_sequence  category_label
 0  RRIRSRPPRLPRPRPRPSFKPRP    rule not met
 1  RRIRCRPPRLPRPRPRPAIVPRP    rule not met
 2  RRIRIRPPRLPRPRPRPMVAPRP        rule met
 3  RRIRMRPPRLPRPRPRPGWKPRP        rule met
 4  RRIRWRPPRLPRPRPRPWHKPRP        rule met
 5  RRIRERPPRLPRPRPRPTWIPRP    rule not met
 6  RRIRSRPPRLPRPRPRPSKNPRP    rule not met
 7  RRIRVRPPRLPRPRPRPIYFPRP    rule not met
 8  RRIRVRPPRLPRPRPRPDDTPRP        rule met
 9  RRIRWRPPRLPRPRPRPEVWPRP        rule met
10  RRIRHRPPRLPRPRPRPFRFPRP        rule met
11  RRIRLRPPRLPRPRPRPVFKPRP        rule met
12  RRIRVRPPRLPRPRPRPCQQPRP        rule met
13  RRIRNRPPRLPRPRPRPQPGPRP        rule met
14  RRIRNRPPRLPRPRPRPMTRPRP    rule not met
15  RRIRHRPPRLPRPRPRPKDTPRP        rule met
16  RRIRFRPPRLPRPRPRPINKPRP    rule not met
17  RRIRRRPPRLPRPRPRPTSCPRP        rule met
18  RRIRYRPPRLPRPRPRPIGHPRP        rule met
19  RRIRFRPPRLPRPRPRPYYHPRP        rule met
20  RRIRERPPRLPRPRPRPNVPPRP        rule met
21  RRIRMRPPRLPRPRPRPVKHPRP        rule met

---

Test system: Escherichia coli TOP10
Test: shrunken log2 fold change of peptide-encoding DNA abundance (4.5 h post-induction vs induction); higher = less antimicrobial activity (less host growth inhibition)
Conditions: time post-induction: 4.5 h; library: site-saturation at positions 5, 18, 19, 20
Classification field: enter yes for shrunken log2 fold change values not below -0.02, no for values below it.

In [3]: df
Out[3]:
          polymer_sequence  category_label
0  RRIRYRPPRLPRPRPRPKWYPRP              no
1  RRIRMRPPRLPRPRPRPGGRPRP             yes
2  RRIRDRPPRLPRPRPRPDRNPRP              no
3  RRIRPRPPRLPRPRPRPRPPPRP             yes
4  RRIRHRPPRLPRPRPRPAKVPRP             yes
5  RRIRDRPPRLPRPRPRPSSYPRP              no

---

Tested on: Escherichia coli TOP10
Experiment: shrunken log2 fold change of peptide-encoding DNA abundance (4.5 h post-induction vs induction); higher = less antimicrobial activity (less host growth inhibition)
Details: time post-induction: 4.5 h; library: site-saturation at positions 5, 18, 19, 20
Listing of entries alongside the reported shrunken log2 fold change.
Property: shrunken log2 fold change

>>> print(df.to_string())
           polymer_sequence                   property  measured
 0  RRIRNRPPRLPRPRPRPISEPRP  shrunken log2 fold change   0.00895
 1  RRIRSRPPRLPRPRPRPQTEPRP  shrunken log2 fold change   -0.0463
 2  RRIRGRPPRLPRPRPRPADCPRP  shrunken log2 fold change     0.349
 3  RRIRGRPPRLPRPRPRPIRMPRP  shrunken log2 fold change    0.0246
 4  RRIRKRPPRLPRPRPRPGILPRP  shrunken log2 fold change      0.28
 5  RRIRDRPPRLPRPRPRPFINPRP  shrunken log2 fold change    -0.337
 6  RRIRIRPPRLPRPRPRPFEFPRP  shrunken log2 fold change  -0.00107
 7  RRIRYRPPRLPRPRPRPFMKPRP  shrunken log2 fold change    -0.272
 8  RRIRHRPPRLPRPRPRPGIPPRP  shrunken log2 fold change    0.0292
 9  RRIRSRPPRLPRPRPRPMIEPRP  shrunken log2 fold change   -0.0828
10  RRIRARPPRLPRPRPRPLFKPRP  shrunken log2 fold change     0.117
11  RRIRARPPRLPRPRPRPFRPPRP  shrunken log2 fold change     0.153
12  RRIRWRPPRLPRPRPRPLTYPRP  shrunken log2 fold change    -0.423
13  RRIRRRPPRLPRPRPRPPAAPRP  shrunken log2 fold change     0.947
14  RRIRDRPPRLPRPRPRPGVQPRP  shrunken log2 fold change   -0.0372
15  RRIRMRPPRLPRPRPRPPPDPRP  shrunken log2 fold change       1.9
16  RRIRQRPPRLPRPRPRPFWPPRP  shrunken log2 fold change     0.083
17  RRIRFRPPRLPRPRPRPQIRPRP  shrunken log2 fold change    -0.231
18  RRIRIRPPRLPRPRPRPACIPRP  shrunken log2 fold change     -0.69
19  RRIRDRPPRLPRPRPRPREDPRP  shrunken log2 fold change     0.293
20  RRIRERPPRLPRPRPRPSLEPRP  shrunken log2 fold change    -0.199
21  RRIRYRPPRLPRPRPRPALHPRP  shrunken log2 fold change      0.12

---

Test system: Escherichia coli TOP10;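 note: peptides expressed intracellularly from a pBAD plasmid library in pooled LB shake-flask culture, induced with 0.3% L-arabinose, DNA abundance read by NGS, three biological replicates, DESeq2 with apeglm shrinkage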
Assay: shrunken log2 fold change of peptide-encoding DNA abundance (4.5 h post-induction vs induction); higher = less antimicrobial activity (less host growth inhibition)
Conditions: time post-induction: 4.5 h; library: site-saturation at positions 5, 18, 19, 20
Readings of shrunken log2 fold change for the listed sequences
Property: shrunken log2 fold change

>>> df
          polymer_sequence         subject_of_test  measured
0  RRIRMRPPRLPRPRPRPNEAPRP  Escherichia coli TOP10     0.326
1  RRIRLRPPRLPRPRPRPDKRPRP  Escherichia coli TOP10    -0.175
2  RRIRCRPPRLPRPRPRPCCTPRP  Escherichia coli TOP10    -0.238
3  RRIRVRPPRLPRPRPRPQQGPRP  Escherichia coli TOP10     0.403
4  RRIRRRPPRLPRPRPRPTFVPRP  Escherichia coli TOP10     0.998
5  RRIRTRPPRLPRPRPRPSNDPRP  Escherichia coli TOP10    -0.557
6  RRIRNRPPRLPRPRPRPIQSPRP  Escherichia coli TOP10    -0.216
7  RRIRFRPPRLPRPRPRPAYGPRP  Escherichia coli TOP10     -0.41
8  RRIRVRPPRLPRPRPRPDSCPRP  Escherichia coli TOP10    -0.115
